Data origin, for the record: the supplement of paper PMC10515830

- System: Danio rerio larvae (5 dpf)
- assay.protocol: difference in excitability vs DMSO (percentage points); higher = more excitable than DMSO
- test.parameters: 10 µM; exposure time 6 h
Where a name gives a salt, the structure may show the parent alone.
// label = true if difference in excitability is not less than 6, otherwise false

>>> class("Cc1ccc(Cl)c(Nc2ccccc2C(=O)O)c1Cl [Meclofenamate (sodium salt)]")
"true"
>>> class("Cc1c(-c2ccc(O)cc2)n(Cc2ccc(OCCN3CCCCCC3)cc2)c2ccc(O)cc12 [Bazedoxifene (acetate)]")
"true"
>>> class("CC(S)C(=O)NCC(=O)O (stereo not drawn)")
"false"

Query: Would you say CC(C)CN(C[C@@H](O)[C@H](Cc1ccccc1)NC(=O)O[C@H]1CCOC1)S(=O)(=O)c1ccc(N)cc1 shows difference in excitability at minimum 6?
Result: false

Query: Can you check CCN1CC(CCN2CCOCC2)C(c2ccccc2)(c2ccccc2)C1=O (stereo not drawn) [Doxapram (hydrochloride hydrate)] next?
Result: false

Query: Can you check CC1COc2c(N3CCN(C)CC3)c(F)cc3c(=O)c(C(=O)O)cn1c23 (stereo not drawn) next?
Result: false

Query: Can you check NS(=O)(=O)c1cc2c(cc1C(F)(F)F)NC(Cc1ccccc1)NS2(=O)=O (stereo not drawn) [Bendroflumethiazide] next?
Result: false

###

- System: Danio rerio larvae (5 dpf)
- assay.protocol: difference in activity during first hour vs DMSO (percentage points); higher = more activity than DMSO
- test.parameters: 10 µM; exposure time 6 h
Structures can show the parent of a compound that is named as a salt.
// label = T if difference in activity during first hour is not less than 2, otherwise F

>>> class("COc1cc2nc(N3CCN(C(=O)C4CCCO4)CC3)nc(N)c2cc1OC (stereo not drawn) [Terazosin (hydrochloride)]")
"F"
>>> class("CCOC(=O)[C@H](CCc1ccccc1)N[C@@H](C)C(=O)N1Cc2cc(OC)c(OC)cc2C[C@H]1C(=O)O [Moexipril (hydrochloride)]")
"T"
>>> class("CNNCc1ccc(C(=O)NC(C)C)cc1 [Procarbazine (hydrochloride)]")
"T"

Query: Would you say Nc1cc(-c2ccncc2)c[nH]c1=O shows difference in activity during first hour at minimum 2?
Result: F

Query: Can you check CC(C)(C)NC[C@H](O)COc1cccc2c1CCCC2=O [Levobunolol (hydrochloride)] next?
Result: T

Query: Can you check C[C@@H]1CCO[C@H]2Cn3cc(C(=O)NCc4ccc(F)cc4F)c(=O)c(O)c3C(=O)N12 next?
Result: T

Query: Can you check C[C@H](N[C@@H](CCc1ccccc1)C(=O)O)C(=O)N1CCC[C@H]1C(=O)O [Enalaprilat (hydrate)] next?
Result: T

Query: Can you check Nc1nc2c(ncn2COCCO)c(=O)[nH]1 next?
Result: F

Query: Can you check Cc1c(OCC(F)(F)F)ccnc1C[S+]([O-])c1nc2ccccc2[nH]1 (stereo not drawn) next?
Result: F

Query: Can you check Nc1nc(NC2CC2)c2ncn([C@H]3C=C[C@@H](CO)C3)c2n1 [Abacavir (sulfate)] next?
Result: T

Query: Can you check CCCCCCCCCC(=O)N[C@@H](Cc1c[nH]c2ccccc12)C(=O)N[C@H](CC(N)=O)C(=O)N[C@@H](CC(=O)O)C(=O)N[C@@H]1C(=O)NCC(=O)N[C@@H](CCCN)C(=O)N[C@@H](CC(=O)O)C(=O)N[C@H](C)C(=O)N[C@@H](CC(=O)O)C(=O)NCC(=O)N[C@H](CO)C(=O)N[C@@H]([C@H](C)CC(=O)O)C(=O)N[C@@H](CC(=O)c2ccccc2N)C(=O)O[C@@H]1C next?
Result: T

###

In this section we review reported difference in startle response values for a set of molecules.
- System: Danio rerio larvae (5 dpf)
- assay.protocol: difference in startle response vs DMSO (percentage points); higher = stronger startle than DMSO
- test.parameters: 10 µM; exposure time 6 h
Where a name gives a salt, the structure may show the parent alone.
Respond with the number and no other words.

>>> reading("O=C(O)CSc1nnc(Br)n1-c1ccc(C2CC2)c2ccccc12")
2.63
>>> reading("CC1COc2c(N3CCN(C)CC3)c(F)cc3c(=O)c(C(=O)O)cn1c23 (stereo not drawn)")
3.75
>>> reading("Cc1c(O)cccc1C(=O)N[C@@H](CSc1ccccc1)[C@H](O)CN1C[C@H]2CCCC[C@H]2C[C@H]1C(=O)NC(C)(C)C [Nelfinavir (mesylate)]")
0.499
>>> reading("FCOC(C(F)(F)F)C(F)(F)F")
2.93
>>> reading("O=C(O)C[C@H](O)C[C@H](O)/C=C/c1c(C2CC2)nc2ccccc2c1-c1ccc(F)cc1 [Pitavastatin (calcium salt)]")
-3.29
>>> reading("COc1cc(Nc2c(C#N)cnc3cc(OCCCN4CCN(C)CC4)c(OC)cc23)c(Cl)cc1Cl")
1.86
>>> reading("C[C@H](Cn1cnc2c(N)ncnc21)OCP(=O)(O)O")
0.269

Query: What measured difference in startle response is associated with Clc1ccc2nsnc2c1NC1=NCCN1 [Tizanidine (hydrochloride)] on Danio rerio larvae (5 dpf)?
Result: 4.3

###

- Tested on: Danio rerio larvae (5 dpf)
- assay.protocol: difference in excitability vs DMSO (percentage points); higher = more excitable than DMSO
- test.parameters: 10 µM; exposure time 6 h
Where a name gives a salt, the structure may show the parent alone.
In this section we review reported difference in excitability values for a set of compounds.
Respond with the number and no other words.

For orientation, consider the following solved cases.
>>> reading("CCCC(CCC)C(=O)O [Valproic Acid (sodium salt)]")
1.2
>>> reading("C[C@](N)(Cc1ccc(O)c(O)c1)C(=O)O [L-(-)-α-Methyldopa]")
2.76
>>> reading("COCC1=C(C(=O)O)N2C(=O)[C@@H](NC(=O)/C(=N\\OC)c3csc(N)n3)[C@H]2SC1")
0.712
>>> reading("C[C@H](Nc1ncnc2nc[nH]c12)c1cc2cccc(Cl)c2c(=O)n1-c1ccccc1")
-1.93
>>> reading("Cn1cnc([N+](=O)[O-])c1Sc1ncnc2[nH]cnc12")
-3.13

Query: Look up difference in excitability: Cc1ccc(Sc2ccccc2N2CCNCC2)c(C)c1 [Vortioxetine (hydrobromide)]
Result: -0.102

Query: Can you check CC[C@@H]1/C=C(\C)C[C@H](C)C[C@H](OC)[C@H]2O[C@@](O)(C(=O)C(=O)N3CCCC[C@H]3C(=O)O[C@H](/C(C)=C/[C@@H]3CC[C@H](Cl)[C@H](OC)C3)[C@H](C)[C@@H](O)CC1=O)[C@H](C)C[C@@H]2OC next?
Result: 12

###

- Test system: Danio rerio larvae (5 dpf)
- assay.protocol: difference in activity during first hour vs DMSO (percentage points); higher = more activity than DMSO
- test.parameters: 10 µM; exposure time 6 h
Structures can show the parent of a compound that is named as a salt.
// label = t if difference in activity during first hour is not less than -3, otherwise f

>>> class("CCCN(CCc1cccs1)[C@H]1CCc2c(O)cccc2C1 [Rotigotine]")
"f"

Query: Would you say CC[C@H](C)C(=O)O[C@H]1C[C@H](O)C=C2C=C[C@H](C)[C@H](CC[C@@H](O)C[C@@H](O)CC(=O)O)[C@H]21 [Pravastatin (sodium salt)] shows difference in activity during first hour at minimum -3?
Result: t

Query: Can you check CCN(CC)C(=O)[C@@]1(c2ccccc2)C[C@H]1CN [Levomilnacipran (hydrochloride)] next?
Result: f

Query: Can you check CCc1nc(N)nc(N)c1-c1ccc(Cl)cc1 [Pyrimethamine] next?
Result: t

###

- Test system: Danio rerio larvae (5 dpf)
- assay.protocol: difference in activity during first hour vs DMSO (percentage points); higher = more activity than DMSO
- test.parameters: 10 µM; exposure time 6 h
Structures can show the parent of a compound that is named as a salt.
In this section we review reported difference in activity during first hour values for a set of compounds.
Respond with the number and no other words.

>>> reading("NS(=O)(=O)c1cc(Cl)c(Cl)c(S(N)(=O)=O)c1 [Dichlorphenamide]")
-2.19
>>> reading("Oc1ccc(C2CNCCc3c2cc(O)c(O)c3Cl)cc1 (stereo unspecified) [Fenoldopam (mesylate)]")
4.74
>>> reading("NC(=O)OCC(COC(N)=O)c1ccccc1 [Felbamate]")
9.63

Query: Look up difference in activity during first hour: COc1ccc(C(=O)CC(=O)c2ccc(C(C)(C)C)cc2)cc1
Result: -6.34

Query: Can you check C[N+](C)(C)CC=O [Betaine Aldehyde (chloride)] next?
Result: 10.1

Query: Can you check CN(C)CCOC(c1ccc(Cl)cc1)c1ccccn1 (stereo unspecified) [Carbinoxamine (maleate)] next?
Result: -11.6

Query: Can you check CN(C)C(=N)NC(=N)N [Metformin (hydrochloride)] next?
Result: -3.05

Query: Can you check N=C(N)c1ccc(OCCCCCOc2ccc(C(=N)N)cc2)cc1 next?
Result: -2.12

Query: Can you check CCc1cc2c(cc1CC)CC(NC[C@H](O)c1ccc(O)c3[nH]c(=O)ccc13)C2 next?
Result: -1.22

Query: Can you check CC(C)(O/N=C(\C(=O)N[C@@H]1C(=O)N2C(C(=O)[O-])=C(C[n+]3ccccc3)CS[C@H]12)c1csc(N)n1)C(=O)O [Ceftazidime (hydrate)] next?
Result: 3.86

Query: Can you check CC1Cc2ccccc2N1NC(=O)c1ccc(Cl)c(S(N)(=O)=O)c1 (stereo unspecified) [Indapamide] next?
Result: 7.09

Query: Can you check NC(=O)N[C@@H](CCC(=O)O)C(=O)O next?
Result: 17.4

Query: Can you check Nc1nc2c(c(=O)[nH]1)N(C=O)C(CNc1ccc(C(=O)NC(CCC(=O)O)C(=O)O)cc1)CN2 (racemic) [DL-Folinic Acid (calcium salt)] next?
Result: 8.84

Query: Can you check C=C1/C(=C\C=C2/CCC[C@]3(C)[C@@H]([C@H](C)/C=C/[C@H](C)C(C)C)CC[C@@H]23)C[C@@H](O)C[C@@H]1O [1-hydroxy Vitamin D2] next?
Result: 2.97

Query: Can you check CN1CCN(C2=Nc3ccccc3Oc3ccc(Cl)cc32)CC1 [Loxapine (succinate)] next?
Result: 43.6

Query: Can you check CCCSc1nc(N[C@@H]2C[C@H]2c2ccc(F)c(F)c2)c2nnn([C@@H]3C[C@H](OCCO)[C@@H](O)[C@H]3O)c2n1 next?
Result: 2.64

Query: Can you check Cc1ccc(NC(=O)c2ccc(CN3CCN(C)CC3)cc2)cc1Nc1nccc(-c2cccnc2)n1 [Imatinib (mesylate)] next?
Result: -9.06

Query: Can you check C=C(c1ccc(C(=O)O)cc1)c1cc2c(cc1C)C(C)(C)CCC2(C)C next?
Result: -13.5

Query: Can you check Cc1cn(-c2cc(NC(=O)c3ccc(C)c(Nc4nccc(-c5cccnc5)n4)c3)cc(C(F)(F)F)c2)cn1 next?
Result: -6.05

Query: Can you check CC(=O)O[C@H]1C(=O)[C@@]2(C)[C@H]([C@H](OC(=O)c3ccccc3)[C@]3(O)C[C@H](OC(=O)[C@H](O)[C@@H](NC(=O)c4ccccc4)c4ccccc4)C(C)=C1C3(C)C)[C@]1(OC(C)=O)CO[C@@H]1C[C@@H]2O next?
Result: -4.46

Query: Can you check CCCCCCCC/C=C\CCCCCCCC(=O)NCCO [Oleoyl Ethanolamide] next?
Result: 2.47

Query: Can you check COCC1=C(C(=O)O)N2C(=O)[C@@H](NC(=O)/C(=N\OC)c3csc(N)n3)[C@H]2SC1 next?
Result: -0.401

Query: Can you check NS(=O)(=O)c1cc(C2(O)NC(=O)c3ccccc32)ccc1Cl (stereo unspecified) next?
Result: 5.83

Query: Can you check CO[C@H]1/C=C/O[C@@]2(C)Oc3c(C)c(O)c4c(O)c(c(/C=N/N5CCN(C6CCCC6)CC5)c(O)c4c3C2=O)NC(=O)/C(C)=C\C=C\[C@H](C)[C@H](O)[C@@H](C)[C@@H](O)[C@@H](C)[C@H](OC(C)=O)[C@@H]1C next?
Result: -3.15

Query: Can you check COc1ccc(CC(C)NCC(O)c2ccc(O)c(NC=O)c2)cc1 (stereo unspecified) [Formoterol (hemifumarate hydrate)] next?
Result: 49.1
